The reader will find reported MIC values listed item by item below.
System: Candida albicans
assayProcedure: Antifungal activity against Candida albicans ATCC SC5314 assessed as inhibition of visible microbial growth by NCCLS protocol based method
Assay type: functional

Before answering, review these 2 worked examples.
CC[C@H](C)[C@@H](Cn1ccnc1)NC(=O)c1ccc(-c2cccc(F)c2)cc1F ... < 0.03 µg/mL
CC[C@H](C)[C@@H](Cn1ccnc1)NC(=O)c1ccc(-c2cccc(F)c2)cc1 ... < 0.03 µg/mL

MIC reported for this compound CC[C@H](C)[C@@H](Cn1ccnc1)NC(=O)c1ccc(-c2ccccc2)cc1 : < 0.03 µg/mL

----------
System: Candida albicans
assayProcedure: Antifungal activity against Candida albicans ATCC SC5314 assessed as inhibition of visible microbial growth by NCCLS protocol based method
Assay type: functional
readoutLabel: MIC

CC(C)C[C@@H](Cn1ccnc1)NC(=O)c1ccc(-c2ccccc2)cc1F ... < 0.03 µg/mL

Entry CCC[C@@H](Cn1ccnc1)NC(=O)c1ccc(-c2ccccc2)cc1 : MIC on Candida albicans = < 0.03 µg/mL

Entry CC(C)[C@@H](Cn1ccnc1)NC(=O)c1ccc(-c2ccccc2)c(F)c1 : MIC on Candida albicans = < 0.03 µg/mL

Entry CC(C)C[C@@H](Cn1ccnc1)NC(=O)c1ccc(-c2ccccc2)c(F)c1 : MIC on Candida albicans = < 0.03 µg/mL

Entry CC[C@H](C)[C@@H](Cn1ccnc1)NC(=O)c1ccc(-c2ccccc2)c(C)c1 : MIC on Candida albicans = > 16 µg/mL

Entry C[C@@H](Cn1ccnc1)NC(=O)c1ccc(-c2ccccc2)cc1 : MIC on Candida albicans = 0.5 µg/mL

Entry CC[C@H](C)[C@@H](Cn1ccnc1)NC(=O)c1ccc(-c2ccccc2F)cc1 : MIC on Candida albicans = < 0.03 µg/mL

----------
Test system: Aspergillus fumigatus
assayProcedure: Antifungal activity against Aspergillus fumigatus CGMCC 3.7795 assessed as inhibition of visible microbial growth by NCCLS protocol based method
Format: functional
The reader will find reported MIC values listed item by item below.

CC[C@H](C)[C@@H](Cn1ccnc1)NC(=O)c1ccc(-c2ccc(F)cc2)cc1 ... > 64 µg/mL
CC[C@H](C)[C@@H](Cn1ccnc1)NC(=O)c1ccc(-c2ccccc2)c(F)c1 ... > 64 µg/mL
CC[C@H](C)[C@@H](Cn1ccnc1)NC(=O)c1ccc(-c2ccccc2)c(Cl)c1 ... > 64 µg/mL
CC(C)[C@@H](Cn1ccnc1)NC(=O)c1ccc(-c2cccc(F)c2)cc1 ... > 64 µg/mL
CC[C@H](C)[C@@H](Cn1ccnc1)NC(=O)c1ccc(-c2ccccc2F)cc1 ... > 64 µg/mL

MIC reported for this compound O=C(N[C@@H](Cc1ccccc1)Cn1ccnc1)c1ccc(-c2ccccc2)c(F)c1 : > 64 µg/mL

MIC reported for this compound CC(C)[C@@H](Cn1ccnc1)NC(=O)c1ccc(-c2ccccc2)c(F)c1 : > 64 µg/mL

MIC reported for this compound O=C(N[C@@H](Cc1ccccc1)Cn1ccnc1)c1ccc(-c2ccccc2)cc1F : > 64 µg/mL

----------
System: Aspergillus fumigatus
assayProcedure: Antifungal activity against Aspergillus fumigatus CGMCC 3.7795 assessed as inhibition of visible microbial growth by NCCLS protocol based method
Assay type: functional
The reader will find reported MIC values listed item by item below.
Your answer should be a plain number; it is taken to be in µg/mL.

Before answering, review these 2 worked examples.
CC[C@H](C)[C@@H](Cn1cncn1)NC(=O)c1ccc(-c2ccccc2)cc1F ... 2
CC(C)[C@@H](Cn1ccnc1)NC(=O)c1ccc(-c2ccccc2)cc1 ... 8

Next item in the queue.
MIC reported for this molecule CC[C@H](C)[C@@H](Cn1ccnc1)NC(=O)c1ccc(-c2ccccc2)cc1F : 2

Data provenance is ChEMBL document CHEMBL4350998.
